meta.source: the supplement of paper PMC7877785

Kindly supply the reported self-splicing fitness (ln) values for the records listed here.
TEST_SUMMARY: self-splicing fitness, log relative to wild type (ln ratio); higher = more splicing; Tetrahymena group I intron in knt gene, E. coli kanamycin selection, DiMSum; sequences stand for … in CUCUCU…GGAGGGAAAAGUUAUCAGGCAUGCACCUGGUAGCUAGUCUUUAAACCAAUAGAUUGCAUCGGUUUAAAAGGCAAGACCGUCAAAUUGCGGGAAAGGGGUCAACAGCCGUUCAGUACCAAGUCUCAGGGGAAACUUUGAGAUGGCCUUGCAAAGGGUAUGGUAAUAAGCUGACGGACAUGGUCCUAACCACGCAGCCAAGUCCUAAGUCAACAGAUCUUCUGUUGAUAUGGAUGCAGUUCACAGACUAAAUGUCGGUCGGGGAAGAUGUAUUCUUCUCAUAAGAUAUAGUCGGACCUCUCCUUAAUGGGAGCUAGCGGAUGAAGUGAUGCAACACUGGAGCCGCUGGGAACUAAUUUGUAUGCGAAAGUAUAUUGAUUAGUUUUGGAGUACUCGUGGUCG;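 note: selection with 25 µg/mL kanamycin versus none on LB agar overnight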
EXPERIMENTAL_SETUP: 37 °C
Number only, please.

In: Please look up its self-splicing fitness (ln): `GUUAAGCAAUAUUACGCUGA`
Out: -1.4

In: Please look up its self-splicing fitness (ln): `UAGGAGCAAUAUUACGAGUC`
Out: -2.78

In: Please look up its self-splicing fitness (ln): `GAUUAGCAAUAUUACGCGUA`
Out: -0.855

In: Please look up its self-splicing fitness (ln): `AACGAGCAAUAUUACGAGUU`
Out: -2.1

In: Please look up its self-splicing fitness (ln): `GUAUAGCAAUAUUACGAGAA`
Out: -2.32

In: Please look up its self-splicing fitness (ln): `GGCUAGCAAUAUUACGCACU`
Out: -0.592

In: Please look up its self-splicing fitness (ln): `UCGGAGCAAUAUUACGUUUC`
Out: -2.02

In: Please look up its self-splicing fitness (ln): `AUUUAGCAAUAUUACGUAUU`
Out: -1.47

In: Please look up its self-splicing fitness (ln): `UGACAGCAAUAUUACGUAUU`
Out: -1.78

In: Please look up its self-splicing fitness (ln): `AUCCAGCAAUAUUACGUUCC`
Out: -0.575

In: Please look up its self-splicing fitness (ln): `AUUCAGCAAUAUUACGGUCG`
Out: -0.679

In: Please look up its self-splicing fitness (ln): `UACAAGCAAUAUUACGCUUA`
Out: -1.18

In: Please look up its self-splicing fitness (ln): `UAGGAGCAAUAUUACGUCAC`
Out: -3.35

In: Please look up its self-splicing fitness (ln): `CGUAAGCAAUAUUACGACCC`
Out: -2.23

In: Please look up its self-splicing fitness (ln): `AACGAGCAAUAUUACGAACU`
Out: -1.42

In: Please look up its self-splicing fitness (ln): `UUACAGCAAUAUUACGUGGG`
Out: -2.43

---

Kindly supply the reported self-splicing fitness (ln) values for the records listed here.
TEST_SUMMARY: self-splicing fitness, log relative to wild type (ln ratio); higher = more splicing; Tetrahymena group I intron in knt gene, E. coli kanamycin selection, DiMSum; sequences stand for … in CUCUCU…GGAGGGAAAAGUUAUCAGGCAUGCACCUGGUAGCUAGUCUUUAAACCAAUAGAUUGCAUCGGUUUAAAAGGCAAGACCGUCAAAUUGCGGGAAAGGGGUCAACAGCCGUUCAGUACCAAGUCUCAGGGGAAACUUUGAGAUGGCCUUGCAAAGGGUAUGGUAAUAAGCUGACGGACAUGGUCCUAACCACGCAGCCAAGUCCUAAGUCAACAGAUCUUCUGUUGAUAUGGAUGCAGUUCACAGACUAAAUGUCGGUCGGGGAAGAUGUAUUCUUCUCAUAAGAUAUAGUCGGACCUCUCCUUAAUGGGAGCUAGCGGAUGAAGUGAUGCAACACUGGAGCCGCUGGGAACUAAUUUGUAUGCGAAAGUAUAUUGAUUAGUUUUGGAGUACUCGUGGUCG
EXPERIMENTAL_SETUP: 30 °C

In: Please look up its self-splicing fitness (ln): `GAGCAGCAAUAUUACGCGGG`
Out: -2.52

In: Please look up its self-splicing fitness (ln): `CUAAAGCAAUAUUACGCUGC`
Out: -3.7

In: Please look up its self-splicing fitness (ln): `GGUAAGCAAUAUUACGUAGA`
Out: -1.56

In: Please look up its self-splicing fitness (ln): `AAUAAGCAAUAUUACGGAAG`
Out: -3.52

In: Please look up its self-splicing fitness (ln): `AAGCAGCAAUAUUACGCCGA`
Out: -1.64

In: Please look up its self-splicing fitness (ln): `GCUGAGCAAUAUUACGGUUA`
Out: -1.74

In: Please look up its self-splicing fitness (ln): `AAACAGCAAUAUUACGCUCU`
Out: -0.653

In: Please look up its self-splicing fitness (ln): `CCUAAGCAAUAUUACGAAGA`
Out: -1.82

In: Please look up its self-splicing fitness (ln): `UGACAGCAAUAUUACGCCGU`
Out: -2.54

In: Please look up its self-splicing fitness (ln): `AGCAAGCAAUAUUACGCAGU`
Out: -3.01

In: Please look up its self-splicing fitness (ln): `ACCGAGCAAUAUUACGAUGU`
Out: -2.71

In: Please look up its self-splicing fitness (ln): `UCACAGCAAUAUUACGCUAC`
Out: -3.12

In: Please look up its self-splicing fitness (ln): `CCCCAGCAAUAUUACGCUUG`
Out: -3.52

In: Please look up its self-splicing fitness (ln): `CCUCAGCAAUAUUACGUCAU`
Out: -3.03

In: Please look up its self-splicing fitness (ln): `AUUUAGCAAUAUUACGUGCG`
Out: -1.82

In: Please look up its self-splicing fitness (ln): `UGGGAGCAAUAUUACGGGUG`
Out: -3.33
